Assign Kb to each entry below.
system-under-test: D(2) dopamine receptor (Homo sapiens) (UniProt P14416)
Sequence (P14416 whole entry): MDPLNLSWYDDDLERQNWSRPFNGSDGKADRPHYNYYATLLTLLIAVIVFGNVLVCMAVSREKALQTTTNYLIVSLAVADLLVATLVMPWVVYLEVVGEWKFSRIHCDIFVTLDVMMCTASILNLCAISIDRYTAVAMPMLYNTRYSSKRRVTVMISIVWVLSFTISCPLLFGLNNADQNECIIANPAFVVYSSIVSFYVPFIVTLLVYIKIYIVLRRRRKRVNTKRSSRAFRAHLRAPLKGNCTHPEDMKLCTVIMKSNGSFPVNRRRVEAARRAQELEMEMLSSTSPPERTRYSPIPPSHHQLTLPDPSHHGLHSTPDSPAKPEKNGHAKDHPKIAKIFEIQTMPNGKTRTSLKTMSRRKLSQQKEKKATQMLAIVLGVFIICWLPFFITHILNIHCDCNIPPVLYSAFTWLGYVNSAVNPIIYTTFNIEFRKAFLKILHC
protocol-details: Negative allosteric modulator activity at wild type human dopamine D2L receptor expressed in FlpIn CHO […] assessed as ERK1/2 phosphorylation measured as equilibrium dissociation constant after 30 mins
Assay type: cell-based
Unit nM implied. Number only.

Exercise: Could you share which Kb value was measured for O=C(N[C@H]1CC[C@H](CCN2CCc3sccc3C2)CC1)c1cc2ccccc2[nH]1 ?
Key: 339

Exercise: Find the recorded Kb belonging to N#Cc1ccc2c(c1)CN(CCCCNC(=O)c1cc3ccccc3[nH]1)CC2 and report it.
Key: 81.2

Exercise: Requested field: Kb. Item: COc1ccccc1N1CCN(CC[C@H]2CC[C@H](NC(=O)c3cc4ccccc4[nH]3)CC2)CC1
Key: 0.257

Exercise: Name the recorded Kb for O=C(N[C@H]1CC[C@H](CCN2CCCc3ccccc3C2)CC1)c1cc2ccccc2[nH]1 .
Key: 2570

Exercise: Given the compound N#Cc1ccc2c(c1)CN(CC[C@H]1CC[C@H](NC(=O)[C@H]3CCCN3)CC1)CC2 , what is its reported Kb?
Key: 45.7

Exercise: GET /values?readout=Kb&item= O=C(N[C@H]1CC[C@H](CCN2CCc3ccc(C(F)(F)F)cc3C2)CC1)c1cc2ccccc2[nH]1
Key: 891

Exercise: Could you share which Kb value was measured for N#Cc1ccc2c(c1)CN(CC[C@H]1CC[C@H](NC(=O)c3cc4cccnc4[nH]3)CC1)CC2 ?
Key: 23.4

Exercise: I have this compound here, O=C(N[C@H]1CC[C@H](CCN2CCc3ccc(Br)cc3C2)CC1)c1cc2ccccc2[nH]1 , and I need its recorded Kb.
Key: 138

Exercise: Bench note: what Kb did N#Cc1ccc2c(c1)CN(CCCCCNC(=O)c1cc3ccccc3[nH]1)CC2 show?
Key: 132

Exercise: # Kb lookup, item O=C(N[C@H]1CC[C@H](CCN2CCc3ccc(Cl)cc3C2)CC1)c1cc2ccccc2[nH]1
Key: 2090

Exercise: What value of Kb has been reported for the following compound? N#Cc1ccc2c(c1)CN(CCCNC(=O)c1cc3ccccc3[nH]1)CC2
Key: 138

Exercise: // query Kb value for entry N#Cc1ccc2c(c1)CN(CCCCCCNC(=O)c1cc3ccccc3[nH]1)CC2
Key: 30.1

Exercise: Requested read-out: Kb. Entry: O=C(N[C@H]1CC[C@H](CCN2CCc3ccccc3C2)CC1)c1cc2ccccc2[nH]1
Key: 87

Exercise: For the compound CN(C(=O)c1cc2ccccc2[nH]1)[C@H]1CC[C@H](CCN2CCc3ccc(C#N)cc3C2)CC1 , what Kb is on record?
Key: 91.2

Exercise: Can you look up the measured Kb of N#Cc1ccc2c(c1)CN(CC[C@H]1CC[C@H](NC(=O)C3=Cc4ccccc4C3)CC1)CC2 for me?
Key: 22.9

Exercise: Which measured Kb value corresponds to O=C(N[C@H]1CC[C@H](CCN2CCc3ccc(F)cc3C2)CC1)c1cc2ccccc2[nH]1 ?
Key: 1050

Exercise: Recorded Kb for Cn1c(C(=O)N[C@H]2CC[C@H](CCN3CCc4ccc(C#N)cc4C3)CC2)cc2ccccc21 , please?
Key: 72.4

Exercise: Field request: Kb | item: N#Cc1ccc2c(c1)CN(CC[C@H]1CC[C@H](NC(=O)[C@@H]3CCCN3)CC1)CC2
Key: 27.5

Exercise: Query: Kb; subject: O=C(N[C@H]1CC[C@H](CCN2CCN(c3cccc(Cl)c3Cl)CC2)CC1)c1cc2ccccc2[nH]1
Key: 1.38
